Listed below: viability, T/C values for each entry.
Test system: 317291-083-R-J1-PDC complex spheroid growth
Assay Remarks: Anticancer human tumor 317291-083-R-J1-PDC patient-derived soft tissue sarcoma cell line growth inhibition [Asc]
Condition Notes: second compound 0.1 µM; first compound 0.00949 µM; hits give low values

Molecule	viability, T/C / %
Cc1nc(N2CCC3(CC2)COC(C)C3N)c(CO)nc1Sc1ccnc(N)c1Cl (stereo not drawn) + Cc1c(S(C)(=O)=O)c(-c2cc(F)cc(N3CCN(c4ccc(NS(=O)(=O)c5ccc(NC(CCN6CCC(C(=O)OCCCP(=O)(O)O)CC6)CSc6ccccc6)c(S(=O)(=O)C(F)(F)F)c5)cc4)CC3)c2)c(-c2ccc(Cl)cc2)n1C(C)C	98.1
Cc1nc(N2CCC3(CC2)COC(C)C3N)c(CO)nc1Sc1ccnc(N)c1Cl (stereo not drawn) + CNC(C)C(=O)NC1CN(S(=O)(=O)c2cccc(S(=O)(=O)N3CCC4CCC(C(=O)NC(c5ccccc5)c5ccccc5)N4C(=O)C(NC(=O)C(C)NC)C3)c2)CCC2CCC(C(=O)NC(c3ccccc3)c3ccccc3)N2C1=O	70.3
CCN1C(C(=O)NC23CCC(C(=O)O)(CC2)CC3)C(c2cccc(Cl)c2F)C2(C(=O)Nc3cc(Cl)ccc32)C12CCCCC2 (stereo not drawn) + CNC(C)C(=O)NC1CN(S(=O)(=O)c2cccc(S(=O)(=O)N3CCC4CCC(C(=O)NC(c5ccccc5)c5ccccc5)N4C(=O)C(NC(=O)C(C)NC)C3)c2)CCC2CCC(C(=O)NC(c3ccccc3)c3ccccc3)N2C1=O	55.4

* * *

System: 317291-083-R-J1-PDC complex spheroid growth
Assay Remarks: Anticancer human tumor 317291-083-R-J1-PDC cell line growth inhibition [Asc];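 also: compound exposure lasted seven days after spheroids formed for three days; 100% = DMSO vehicle control wells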
Condition Notes: second compound 0.00316 µM; first compound 0.01 µM; hits give low values
Decision: viability, T/C beneath 60% gives satisfied; viability, T/C meeting or exceeding 60% gives not satisfied.

Molecule	Label Class
O=C(c1ccc(F)c(F)c1Nc1ccc(I)cc1F)N1CC(O)([C@@H]2CCCCN2)C1 + CNC(C)C(=O)NC1CN(S(=O)(=O)c2cccc(S(=O)(=O)N3CCC4CCC(C(=O)NC(c5ccccc5)c5ccccc5)N4C(=O)C(NC(=O)C(C)NC)C3)c2)CCC2CCC(C(=O)NC(c3ccccc3)c3ccccc3)N2C1=O	not satisfied
Cn1ncnc1[C@H]1c2n[nH]c(=O)c3cc(F)cc(c23)N[C@@H]1c1ccc(F)cc1 + CNC(C)C(=O)NC1CN(S(=O)(=O)c2cccc(S(=O)(=O)N3CCC4CCC(C(=O)NC(c5ccccc5)c5ccccc5)N4C(=O)C(NC(=O)C(C)NC)C3)c2)CCC2CCC(C(=O)NC(c3ccccc3)c3ccccc3)N2C1=O	satisfied
NC1CCC(NC2CC2c2ccccc2)CC1 (stereo not given) + CNC(C)C(=O)NC1CN(S(=O)(=O)c2cccc(S(=O)(=O)N3CCC4CCC(C(=O)NC(c5ccccc5)c5ccccc5)N4C(=O)C(NC(=O)C(C)NC)C3)c2)CCC2CCC(C(=O)NC(c3ccccc3)c3ccccc3)N2C1=O	not satisfied
COc1c(OCCCN2CCOCC2)ccc2c3n(c(=NC(=O)c4cnc(N)nc4)nc12)CCN3 + CNC(C)C(=O)NC1CN(S(=O)(=O)c2cccc(S(=O)(=O)N3CCC4CCC(C(=O)NC(c5ccccc5)c5ccccc5)N4C(=O)C(NC(=O)C(C)NC)C3)c2)CCC2CCC(C(=O)NC(c3ccccc3)c3ccccc3)N2C1=O	not satisfied
